- System: NIH 3T3 EF
- Assay Remarks: MTT cell proliferation assay
- Assay type: cell-based
- Condition Summary: 3 days, read-out: Cytotoxic effect (MTT) IC50
Endpoint Name: pIC50
pIC50 here is simply -log10 of the concentration when that concentration is written in mol/L.

(Q) Return pIC50 measured with NIH 3T3 EF given this compound: Cc1c2cc[n+](CCN3CCCCC3)cc2c(C)c2c1[nH]c1ccc(O)cc12.[Cl-] [BA016DD537]
(A) 6.40

---

- Test system: SK-N-MC
- Assay Remarks: MTT cell proliferation assay
- Format: cell-based
- Condition Summary: 3 days, read-out: Cytotoxic effect (MTT) IC50
Endpoint Name: pIC50
pIC50 here is simply -log10 of the concentration when that concentration is written in mol/L.

(Q) Form field: reported pIC50 of CS(=O)(=O)[O-].Cc1c2cc[n+](CCN3CCCCC3)cc2c(C)c2c1[nH]c1ccc(O)cc12 [BA016FZ539]
(A) 6.08
